# System: 22Rv1 cells
# assay protocol: Cell growth and viability (neutral red / sulforhodamine B) and morphology
# Format: cell-based, human
# test parameters: 72 h, 22RV1, SRB; read-out: CI50 (the source's name)
pIC50: −log10 of the molar value.

- molecule: "CC[C@H](CC[C@@H](C)[C@H]1CC[C@H]2[C@@H]3CC=C4C[C@@H](O)CC[C@]4(C)[C@H]3CC[C@]12C)C(C)C [β-sitosterol]"
  pIC50: 4.47
